test system: enone reductase; test: Substrate specificity of purified enone reductase; format: biochemical, Kluyveromyces lactis; details: coenzyme NADPH; activity on methyl vinyl ketone taken as 100; enzyme obtained in Example 1
Label YES when Relative activity is at or above 20%; otherwise label NO.

# example entries with known answers
CC(=O)C=C(C)C NO
CC(=O)C=O NO

Shifting focus to the compound that follows.
Query :: Exam item: decide whether the reported Relative activity for CC(=O)c1ccccc1 is at least 20%.
Result :: NO

* * *

tested on: enone reductase; assay: Substrate specificity of purified enone reductase; assay type: biochemical, Kluyveromyces lactis; conditions: coenzyme NADPH; activity on methyl vinyl ketone taken as 100; enzyme obtained in Example 1
Parameter: Relative activity. Scope: all listed entries.

Query :: Find the recorded Relative activity belonging to C/C=C/C(=O)O and report it.
Result :: 0%

Query :: Find the recorded Relative activity belonging to CC1=CC(=O)CC1 and report it.
Result :: 0%

Query :: Find the recorded Relative activity belonging to CCC(C)=O and report it.
Result :: 0%

Query :: Find the recorded Relative activity belonging to CC1=CCCC1=O and report it.
Result :: 0%

Query :: Find the recorded Relative activity belonging to CC=C(C)C(C)=O and report it.
Result :: 48%

Query :: Find the recorded Relative activity belonging to CC(=O)C(C)=O and report it.
Result :: 1%

Query :: Find the recorded Relative activity belonging to C=CC(C)=O and report it.
Result :: 100%

Query :: Find the recorded Relative activity belonging to CC=CC(C)=O and report it.
Result :: 16%

Query :: Find the recorded Relative activity belonging to C=CC(=O)CC and report it.
Result :: 537%
